readout-name: melting point

compound: O=C(O)[C@H](Cc1ccc(OCCc2coc(-c3ccccc3)n2)cc1)NS(=O)(=O)Cc1ccccc1
readout-name: melting point
reported-value: 141 to 143 °C
//
compound: O=S1(=O)N=C(NC2CCCC2)Nc2cc(Cl)sc21
readout-name: melting point
reported-value: 291 to 292 °C
//
compound: CN1Cc2c(-c3nc(CCl)cs3)ncn2-c2cccc(Cl)c2C1=O
readout-name: melting point
reported-value: 277 to 279 °C
//
compound: CC1(C)CC(Nc2nc(NC3CC(C)(C)NC(C)(C)C3)nc(N(C3CC(C)(C)NC(C)(C)C3)C3CC(C)(C)NC(C)(C)C3)n2)CC(C)(C)N1
readout-name: melting point
reported-value: 235 to 243 °C
//
compound: NC(=O)c1nnn(Cc2ccc(C(Cl)=C(Cl)Cl)cc2)c1N
readout-name: melting point
reported-value: 200 to 203 °C

Continue with the next compound.
Task item: Dear colleague, I am looking for the recorded melting point of the following compound: [N-]=[N+]=NCCCc1ccc(C(N)=O)s1
Reply: 85 to 87 °C

* * *

readout-name: melting point

compound: O=C(O)C1=Cc2cc(Cl)cc(CO)c2OC1C(F)(F)F (stereo not given)
melting point: 175 to 179 °C

Task item: Dear colleague, I am looking for the recorded melting point of the following compound: Cc1cccc(-c2[nH]c(C(C)C)nc2-c2cccc(-c3ccoc3)c2)n1
Reply: 74 to 78 °C

Task item: Dear colleague, I am looking for the recorded melting point of the following compound: O=c1[nH]c2ccccc2c2ccc3nc(Nc4c(Cl)cccc4Cl)[nH]c3c12
Reply: > 300 °C

Task item: Dear colleague, I am looking for the recorded melting point of the following compound: CCOC(=O)c1c(SC)nc(-c2ccc(SC)cc2)n(-c2ccc(F)cc2)c1=O
Reply: 151 to 155 °C

Task item: Dear colleague, I am looking for the recorded melting point of the following compound: CC(C)(COc1ccc(C(N)=O)cn1)NCc1ccccc1
Reply: 125 to 126 °C

* * *

readout-name: melting point

compound: C=C1NC(=O)OC12CCN(Cc1ccccc1)CC2
readout-name: melting point
reported-value: 169 to 170 °C
--
compound: c1ccc(CN2CC3CC2CN3C2=Nc3ccccc3Oc3ccccc32)cc1 (centres undefined)
readout-name: melting point
reported-value: 70 to 72 °C
--
compound: CC(C)(C)CC(C)(C)NSc1nc2ccccc2s1
readout-name: melting point
reported-value: 104 °C
--
compound: CN1c2ccc(-c3cccc4ccccc34)cc2Sc2cc(-c3cccc4ccccc34)ccc21
readout-name: melting point
reported-value: 185 to 190 °C
--
compound: COC(=O)c1cc(-c2ccc(OC)c(Cl)c2)nn(CC=Cc2ccc(Cl)cc2)c1=O
readout-name: melting point
reported-value: 180 to 182 °C

Task item: Dear colleague, I am looking for the recorded melting point of the following compound: CC(C)Oc1ccc(CCCOc2cc(CCC(=O)O)n(-c3ccccc3)n2)c(Oc2ccc(Cl)cc2Cl)n1
Reply: 60 to 62 °C

Task item: Dear colleague, I am looking for the recorded melting point of the following compound: CC(C)(C)OC(=O)NCCCCC(=O)Nc1ccc(OCc2ccccc2)c(C(=O)NCCC(=O)OCc2ccccc2)c1
Reply: 97 to 99 °C

Task item: Dear colleague, I am looking for the recorded melting point of the following compound: Cc1cc(-c2cc3nccnc3[nH]2)cn1C
Reply: 253 °C

Task item: Dear colleague, I am looking for the recorded melting point of the following compound: C[C@@H](Oc1ccc2c(c1)N(C)C(=O)N(c1ccc(Cl)cc1)S2(=O)=O)C(=O)O
Reply: 85 to 95 °C

Task item: Dear colleague, I am looking for the recorded melting point of the following compound: N=C(Nc1ccccc1I)Nc1cccc2ccccc12
Reply: 154 to 155 °C

* * *

readout-name: melting point

compound: CCOC(=O)C1=C(C)NC(C)=C(C(=O)OCC)C1c1ccc(-n2ccnc2)cc1
melting point: 231 to 233 °C
//
compound: COc1ccc2c(c1)sc1c(C(=O)Nc3nnn[nH]3)cnc(=O)n12
melting point: 234 to 235 °C
//
compound: COc1ccc(CNc2ncc[nH]2)cc1OC1CCCC1
melting point: 114 to 115 °C
//
compound: CNC(=N[N+](=O)[O-])NCCSCc1[nH]cnc1C
melting point: 112 to 114 °C
//
compound: O=[N+]([O-])c1ccccc1S(=O)(=O)NOCc1ccccc1
melting point: 148 to 151 °C
//
compound: CC(O)COc1c2ccccc2c(C=O)c2ccccc12 (centres undefined)
melting point: 84 to 86 °C
//
compound: N#Cc1ccc2[nH]c(C(N)=O)cc2c1
melting point: > 300 °C
//
compound: Cc1cc(OCc2sc(-c3ccc(C(F)(F)F)cc3)nc2C)ccc1/C=C/C(=O)O
melting point: 200 to 203 °C

Task item: Dear colleague, I am looking for the recorded melting point of the following compound: N#CCOS(=O)(=O)c1cccc([N+](=O)[O-])c1
Reply: 66 to 69 °C

Task item: Dear colleague, I am looking for the recorded melting point of the following compound: CC(=O)c1ccc(-c2ccc(CC(=O)NC3CCN(Cc4ccc(Cl)c(Cl)c4)CC3)cc2)cc1
Reply: 184 °C

Task item: Dear colleague, I am looking for the recorded melting point of the following compound: Nc1nc(-n2cc(C(=O)O)c(=O)c3cc(F)c(N4CC(O)C4)c(Br)c32)c(F)cc1F
Reply: 215 to 220 °C

Task item: Dear colleague, I am looking for the recorded melting point of the following compound: Cc1ccc(C(C)NC(=O)C2CC(=O)c3cc(F)ccc3O2)cc1 (single isomer, unassigned; (+))
Reply: 157 °C

Task item: Dear colleague, I am looking for the recorded melting point of the following compound: CCCCCc1ccc(CCc2ccc(-c3ccc(OC(F)(F)F)cc3)cc2)cc1
Reply: 60 °C

Task item: Dear colleague, I am looking for the recorded melting point of the following compound: CCc1ccc(-c2nc3cccnc3n2-c2ccc(CCNC[C@H](O)COc3ccc(O)cc3)cc2)cc1
Reply: 75 to 78 °C

Task item: Dear colleague, I am looking for the recorded melting point of the following compound: Cc1cc2c(c(C3=NNC(=O)CC3C)c1)OCCN2 (centres undefined)
Reply: 160 to 162 °C

Task item: Dear colleague, I am looking for the recorded melting point of the following compound: Clc1ccc(C2(Cn3cncn3)CCC2)cc1
Reply: 124 to 125 °C

Task item: Dear colleague, I am looking for the recorded melting point of the following compound: NCC1Cc2cc(Cl)cc(-c3cccnc3)c2O1 (centres undefined)
Reply: > 250 °C

Task item: Dear colleague, I am looking for the recorded melting point of the following compound: CC(=O)N(C)c1csc(Br)n1
Reply: 84 °C

Task item: Dear colleague, I am looking for the recorded melting point of the following compound: CCOC(=O)N1CCN(C(=O)C2CCC(=O)N2)CC1 (centres undefined)
Reply: 147 to 148 °C

Task item: Dear colleague, I am looking for the recorded melting point of the following compound: COC(=O)c1cc(C(=O)Cl)cc([N+](=O)[O-])c1
Reply: 66 to 68 °C

Task item: Dear colleague, I am looking for the recorded melting point of the following compound: CS(=O)(=O)N[C@@H]1CN2C(=O)N(c3cc(Cl)nc(Cl)c3)C(=O)[C@@]2(Cc2ccc(OC(F)(F)F)cc2)C1
Reply: 207 °C

Task item: Dear colleague, I am looking for the recorded melting point of the following compound: CC12CCC(OS(=O)(=O)C(F)(F)F)=CC1=CCC1C2CCC2(C)C(C(=O)O)CCC12 (centres undefined)
Reply: 140 to 150 °C

Task item: Dear colleague, I am looking for the recorded melting point of the following compound: CNC(=NCCSCc1[nH]cnc1C)NS(=O)(=O)c1ccccc1
Reply: 156 to 158 °C

Task item: Dear colleague, I am looking for the recorded melting point of the following compound: CC(=C1SCCCS1)c1cccc(N)c1
Reply: 99 to 100 °C

Task item: Dear colleague, I am looking for the recorded melting point of the following compound: CSC(SC)=C(C#N)C(=O)N1CCOCC1
Reply: 55 to 57 °C

Task item: Dear colleague, I am looking for the recorded melting point of the following compound: COc1ccc(CNC(=O)N2CCN(c3ncnc4cc(OC)c(OC)cc34)CC2)cc1
Reply: 147 to 148 °C

Task item: Dear colleague, I am looking for the recorded melting point of the following compound: O=C(Nc1ccc(N2CCN(C(=O)Nc3ccc(OCCO)cc3C(F)(F)F)CC2)cc1)Nc1cccc2c1OCC2
Reply: 218 to 220 °C

Task item: Dear colleague, I am looking for the recorded melting point of the following compound: Cc1cc(-c2ccc(Cl)cc2)nc2c(C(=O)Nc3cccc(S(C)(=O)=O)c3)cnn12
Reply: 250 to 251 °C

Task item: Dear colleague, I am looking for the recorded melting point of the following compound: COc1ccccc1N1CC[N+]([O-])(CCN(C(=O)C2CCCCC2)c2ccccc2[N+](=O)[O-])CC1
Reply: 128 to 132 °C

Task item: Dear colleague, I am looking for the recorded melting point of the following compound: O=C(NCc1ccn(-c2cc3nc(C(=O)O)c(=O)[nH]c3cc2C(F)(F)F)c1)Nc1cccc(F)c1
Reply: 169 to 171 °C

Task item: Dear colleague, I am looking for the recorded melting point of the following compound: CCc1nc(N)nc(N)c1CCCCc1cc(Cl)c(Cl)cc1Cl
Reply: 158 to 163 °C

Task item: Dear colleague, I am looking for the recorded melting point of the following compound: O=C(NCc1ccc(Cl)cc1)c1cn(N2CCOCC2)c2ccc(CN3CCOCC3)cc2c1=O
Reply: 195 to 196 °C

Task item: Dear colleague, I am looking for the recorded melting point of the following compound: O=C(NCCN1CCOCC1)Nc1nc2ccc(OCc3c(F)cccc3Cl)cc2s1
Reply: 210 °C
